- system-name: UniProtKB O75582
- Sequence (O75582 whole entry, looked up): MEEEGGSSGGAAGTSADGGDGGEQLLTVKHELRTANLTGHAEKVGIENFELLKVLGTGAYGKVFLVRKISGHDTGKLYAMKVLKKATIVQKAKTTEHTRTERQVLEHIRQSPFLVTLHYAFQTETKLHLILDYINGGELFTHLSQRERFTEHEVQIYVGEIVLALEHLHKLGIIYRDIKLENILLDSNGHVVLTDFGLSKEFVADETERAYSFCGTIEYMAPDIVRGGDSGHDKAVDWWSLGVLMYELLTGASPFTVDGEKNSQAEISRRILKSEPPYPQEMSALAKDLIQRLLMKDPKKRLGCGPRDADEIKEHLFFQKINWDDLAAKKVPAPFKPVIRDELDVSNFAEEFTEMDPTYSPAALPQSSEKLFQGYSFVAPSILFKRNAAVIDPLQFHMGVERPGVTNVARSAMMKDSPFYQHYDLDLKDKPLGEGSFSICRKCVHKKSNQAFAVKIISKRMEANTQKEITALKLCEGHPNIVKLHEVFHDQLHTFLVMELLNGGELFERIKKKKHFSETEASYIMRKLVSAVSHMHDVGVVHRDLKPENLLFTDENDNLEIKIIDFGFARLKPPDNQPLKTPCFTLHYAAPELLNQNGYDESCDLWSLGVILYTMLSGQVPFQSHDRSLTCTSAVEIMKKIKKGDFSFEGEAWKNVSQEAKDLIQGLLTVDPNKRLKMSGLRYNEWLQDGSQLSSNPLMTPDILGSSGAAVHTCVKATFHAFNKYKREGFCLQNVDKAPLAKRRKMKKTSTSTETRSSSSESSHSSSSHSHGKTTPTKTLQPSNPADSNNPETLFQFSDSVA
- test-description: radiometric filter-binding kinase assay
- condition: compound 100.0 µM
property-name: residual activity (%)

Worked set:
Cc1ccc2c(c1)C(=O)[C@@]1(O)CCN(c3ccccc3)C1=N2
75
COC(=O)/C=C/C(=O)OC
105

I = Cc1cc(N=Nc2cc(S(=O)(=O)O)c(C)cc2C)c(N)cc1O
II = N#Cc1c(O)c2c(-c3ccc(-c4ccccc4O)cc3)csc2[nH]c1=O
Qu. Please indicate which has the smaller reported residual activity: I , or II . Answer by stating the label of the chosen item.
Ans. II

---

- system-name: MAP3K1 (human)
- test-description: radiometric filter-binding kinase assay
- condition: compound 10.0 µM
property-name: residual activity (%)

Worked set:
O=S(=O)(c1ccc(F)c2nonc12)N1CCN(c2ncc(C(F)(F)F)cc2Cl)CC1
85
CCCC(CCC)C(=O)O
107
NC(=O)c1cc(-c2ccnc(NC3CCCCC3)c2)nc(N2CCNCC2)c1
102

a = Cc1ccc(-c2ccc3c(ccc4sc5c(c43)NC[C@@H](C)NC5=O)n2)cn1
b = N#Cc1c(C2CCNCC2)cc(-c2c(O)cccc2OCC2CC2)nc1N
Qu. Select the item with the higher value of residual activity from the options a and b listed. Answer by stating the label of the chosen item.
Ans. a

---

- system-name: PAK6 (human)
- test-description: radiometric filter-binding kinase assay
- condition: compound 0.1 µM
property-name: residual activity (%)

CN(C)C/C=C/C(=O)Nc1cccc(C(=O)Nc2ccc(Nc3nccc(-c4cccnc4)n3)cc2)c1
87
CCCCCc1ccc(/C=C/[C@H](O)[C@@H](CO)NC)cc1
105
NC1(c2ccc(-c3nc4ccn5c(=O)[nH]nc5c4cc3-c3ccccc3)cc2)CCC1
85
O=C(NCCCNc1nc(Nc2cccc(CN3CCOCC3)c2)ncc1C1CC1)C1CCC1
87
CNc1nc(-c2ccc3c(N)n[nH]c3c2)cc(N2C[C@@H](C(=O)NC3CCCCC3)CC[C@H]2C)n1
120

---

- system-name: IRAK1 (human)
- test-description: radiometric filter-binding kinase assay
- condition: compound 10.0 µM
property-name: residual activity (%)

1 = COC(=O)/C=C/C(=O)OC
2 = Cc1ccc(-c2ccc3c(ccc4sc5c(c43)NC[C@@H](C)NC5=O)n2)cn1
3 = CC(C)(C#N)c1ccc(N2C(=O)OCc3cnc4ccc(-c5cnc6ccccc6c5)cc4c32)cc1
Qu. Rank order required: residual activity, descending. Form field (ranking): labels in requested order.
Ans. 1, 3, 2
(1: 101%, 3: 56%, 2: 27%)

---

- system-name: CSK (human)
- test-description: radiometric filter-binding kinase assay
- condition: compound 100.0 µM
property-name: residual activity (%)

Worked set:
COC(=O)/C=C/C(=O)OC
82
N#Cc1c(O)c2c(-c3ccc(-c4ccccc4O)cc3)csc2[nH]c1=O
82

A = Cc1ccc2c(c1)C(=O)[C@@]1(O)CCN(c3ccccc3)C1=N2
B = Cc1cc(N=Nc2cc(S(=O)(=O)O)c(C)cc2C)c(N)cc1O
Qu. Select the item with the higher value of residual activity from the options A and B listed. Answer by stating the label of the chosen item.
Ans. B

---

- system-name: MAP2K1 (human)
- test-description: radiometric filter-binding kinase assay
- condition: compound 10.0 µM
property-name: residual activity (%)

Worked set:
O=c1c(O)c(-c2ccc(O)c(O)c2)oc2cc(O)c(O)c(O)c12
24
CC(C)(C#N)c1ccc(N2C(=O)OCc3cnc4ccc(-c5cnc6ccccc6c5)cc4c32)cc1
96
O=C(NOC[C@H](O)CO)c1ccc(F)c(F)c1Nc1ccc(I)cc1Cl
2
CNc1nc(-c2ccc3c(N)n[nH]c3c2)cc(N2C[C@@H](C(=O)NC3CCCCC3)CC[C@H]2C)n1
74
c1ccc2c(-c3cnn4cc(-c5ccc(N6CCNCC6)cc5)cnc34)ccnc2c1
67

A = NC(=O)Nc1ccc2c(c1)/C(=C/c1cc(-c3cccnc3)c[nH]1)C(=O)N2
B = NS(=O)(=O)OC[C@@H]1C[C@@H](n2ccc3c(N[C@H]4CCc5ccccc54)ncnc32)C[C@@H]1O
C = C=CC(=O)N1CCC[C@@H](n2nc(-c3ccc(Oc4ccccc4)cc3)c3c(N)ncnc32)C1
Qu. Please list these in order of increasing residual activity. Thank you! Form field (ranking): labels in requested order.
Ans. A, C, B
(A: 2%, C: 56%, B: 99%)

P = NC1(c2ccc(-c3nc4ccn5c(=O)[nH]nc5c4cc3-c3ccccc3)cc2)CCC1
Q = CCOC(=O)c1ccc(N2NC(=O)/C(=C/c3ccc([N+](=O)[O-])o3)C2=O)cc1
R = NC(=O)c1cc(-c2ccnc(NC3CCCCC3)c2)nc(N2CCNCC2)c1
Qu. Descending sort on residual activity required. Form field (ranking): labels in requested order.
Ans. P, R, Q

P = CCCCCc1ccc(/C=C/[C@H](O)[C@@H](CO)NC)cc1
Q = O=C1NC(=S)N[C@@H]1Cc1c[nH]c2ccccc12
R = O=C(NOCC(O)CO)c1ccc(F)c(F)c1Nc1ccc(I)cc1Cl (stereo not given)
Qu. Please list these in order of increasing residual activity. Thank you! Form field (ranking): labels in requested order.
Ans. Q, R, P

Every entry's value here was drawn from the kinase profiling compilation of Christmann-Franck et al. (2016).
